Provide the reported koff of each item.
- System: T1, human TIM-3 antigen (His-tagged TIM-3 extracellular domain expressed by Ampsource Biopharma Shanghai Inc.) (human, UniProt Q8TDQ0 22-202)
- T1 construct: extracellular domain; also called TIM-3-His; not shown: His tag
- Assay Name: BLI (ForteBio Octet) as stated; antibody captured by anti-human IgG Fc, antigen in solution, 1:1 model
Numbers only, in s⁻¹.

input: What measured koff goes with humanized anti-TIM-3 antibody AB12S7 (antibody, V domains shown) VH: EVQLQLSGAEVKKPGASVKVSCKASGYTFTNYVMHWMRQKPGQRLEWMGWIDPDNDGIKYSQKFQGRVTITRDKSSSTAYMELSSLRSEDTAVYYCARDFGYVDWFPYWGQGTLVTVSS VL: DIVMTQSPSSLSASVGDRVTITCQASQDVTTALNWYQQKSGQSPKLLIYSASNLETGVPSRFSGSGSGTDFTFTISSLQPEDIATYYCQQHYSIPPTFGGGTNLEIK ?
output: 7.66e-07

input: Another binder to check: humanized anti-TIM-3 antibody AB12S6 (antibody, V domains shown) VH: QVQLQLSGAEVKKPGASVKVSCKASGYTFTNYVMHWVRQAPGQRLEWMGWIDPDNDGIKYSQKFQGRVTLTSDKSASTAYMELSSLRSEDTAVYYCARDFGYVDWFPYWGQGTLVTVSS VL: DIQMTQSPSSMSASVGDRVTITCQASQDVTTALNWYQQKPGKSPKLLIYSASNLETGVPSRFSGSGSGTDFTFTISSLQPEDIATYYCQQHYSIPPTFGGGTNLEIK
output: 8.68e-07

Read the next record carefully.
input: What measured koff goes with humanized anti-TIM-3 antibody AB12S5 (antibody, V domains shown, it was captured through anti-human IgG Fc) VH: QVQLVQSGAEVKKPGASVKVSCKASGYTFTNYVMHWVRQAPGQRLEWMGWIDPDNDGIKYSQKFQGRVTITRDTSASTAYMELSSLRSEDTAVYYCARDFGYVDWFPYWGQGTTVTVSS VL: DIQMTQSPSSLSASVGDRVTITCQASQDVTTALNWYQQKPGKAPKLLIYSASNLETGVPSRFSGSGSGTDFTFTISSLQPEDIATYYCQQHYSIPPTFGGGTKVEIK ?
output: 6.32e-07
